Attribution: patent US11236084B2

- system.name: recombinant human NF-kappaB-inducing kinase (NIK/MAP3K14) (Homo sapiens)
- Sequence (Q99558 whole entry): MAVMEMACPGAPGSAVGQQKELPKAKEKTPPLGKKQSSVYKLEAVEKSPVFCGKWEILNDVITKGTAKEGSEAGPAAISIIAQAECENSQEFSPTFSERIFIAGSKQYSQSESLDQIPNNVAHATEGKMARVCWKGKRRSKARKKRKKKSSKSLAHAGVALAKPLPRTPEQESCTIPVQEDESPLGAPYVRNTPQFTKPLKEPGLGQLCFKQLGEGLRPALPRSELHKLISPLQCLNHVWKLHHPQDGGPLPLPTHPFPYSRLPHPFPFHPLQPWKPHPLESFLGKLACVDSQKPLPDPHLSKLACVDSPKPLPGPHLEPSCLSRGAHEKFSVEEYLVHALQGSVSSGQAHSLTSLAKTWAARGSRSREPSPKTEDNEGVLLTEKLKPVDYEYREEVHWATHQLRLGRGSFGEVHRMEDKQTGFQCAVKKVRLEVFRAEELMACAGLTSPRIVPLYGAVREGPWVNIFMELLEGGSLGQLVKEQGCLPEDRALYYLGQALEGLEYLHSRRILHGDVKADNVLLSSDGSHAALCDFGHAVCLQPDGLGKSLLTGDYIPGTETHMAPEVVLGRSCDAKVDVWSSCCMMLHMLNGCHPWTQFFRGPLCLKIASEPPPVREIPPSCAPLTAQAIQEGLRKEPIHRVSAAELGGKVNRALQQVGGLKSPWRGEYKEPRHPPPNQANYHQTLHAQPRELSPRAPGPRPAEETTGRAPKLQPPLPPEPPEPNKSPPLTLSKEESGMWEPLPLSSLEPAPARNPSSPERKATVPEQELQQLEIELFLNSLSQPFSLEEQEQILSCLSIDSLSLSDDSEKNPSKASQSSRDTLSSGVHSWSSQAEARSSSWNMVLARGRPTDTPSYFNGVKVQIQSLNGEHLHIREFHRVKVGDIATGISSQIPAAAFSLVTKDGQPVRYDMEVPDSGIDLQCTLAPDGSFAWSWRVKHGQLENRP
- assay.text: Biological Assay B: inhibition of auto-phosphorylation of recombinant human NIK/MAP3K14 (AlphaScreen), performed at 2 locations
- Assay type: biochemical
- condition.details: location 2; AlphaScreen auto-phosphorylation; averaged values; read-out: Assay B location 2 IC50
experimental.readout: IC50 (nM)

>  <compound>
COCCOc1cc(N2CCOCC2)c(C#N)cc1Nc1nccc(-c2cnc3c(c2)C(C)(CO)CN3)n1 (stereo not drawn) [Compound 369]

>  <unit.string>
nM

>  <IC50>
64.6

$$$$
>  <compound>
CC1(CO)CNc2ncc(-c3ccnc(Nc4cc(F)ccc4Cl)n3)cc21 (stereo not drawn) [Compound 197]

>  <unit.string>
nM

>  <IC50>
11.2

$$$$
>  <compound>
COc1cccc(Nc2nccc(-c3cnc4c(c3)C(C)(CO)CN4)n2)c1 (stereo not drawn) [Compound 168]

>  <unit.string>
nM

>  <IC50>
3.6

$$$$
>  <compound>
COc1cc(N2CCOCC2)c(C#N)cc1Nc1nccc(-c2cnc3c(c2)C(C)(CO)CN3)n1 (single isomer, unassigned) [Compound 4R]

>  <unit.string>
nM

>  <IC50>
36.3

$$$$
>  <compound>
CN1CCC(Oc2ccccc2Nc2nccc(-c3cnc4c(c3)C(C)(CO)CN4)n2)CC1 (stereo not drawn) [Compound 246]

>  <unit.string>
nM

>  <IC50>
17.8

$$$$
>  <compound>
COc1cc(OCCN2CCN(C)CC2)c(Cl)cc1Nc1nccc(-c2cnc3c(c2)C(C)(CO)CN3)n1 (stereo not drawn) [Compound 320]

>  <unit.string>
nM

>  <IC50>
1

$$$$

I = COc1cc(N2CC3(CCOCC3)C2)c(Cl)cc1Nc1nccc(-c2cnc3c(c2)C(C)(CO)CN3)n1 (single isomer, unassigned) [Compound 3R]
II = Cc1c(Cl)cccc1Nc1nccc(-c2cnc3c(c2)C(C)(CO)CN3)n1 (stereo not drawn) [Compound 224]
III = COc1cc(N2CCC2)c(Cl)cc1Nc1nccc(-c2cnc3c(c2)C(C)(CO)CN3)n1 (stereo not drawn) [Compound 294]
IV = CC1(CO)CNc2ncc(-c3ccnc(Nc4cc(C#N)c(N5CCOCC5)cc4Cl)n3)cc21 (single isomer, unassigned) [Compound 260]
Query block: List these items ordered by IC50, big to small. Present the labels in the sequence the task asks for.
Result block: IV, II, I, III

----------
- system.name: recombinant human NF-kappaB-inducing kinase (NIK/MAP3K14) (Homo sapiens)
- assay.text: Biological Assay B: inhibition of auto-phosphorylation of recombinant human NIK/MAP3K14 (AlphaScreen), performed at 2 locations
- Assay type: biochemical
- condition.details: location 2; AlphaScreen auto-phosphorylation; averaged values; read-out: Assay B location 2 IC50
pIC50: −log10 of the molar value.
experimental.readout: pIC50

Solved cases (3 shown):
>  <compound>
CC(=O)NCc1ccc(Nc2nccc(-c3cnc4c(c3)C(C)(CO)CN4)n2)c(C)c1 (stereo not shown)

>  <pIC50>
7.95

$$$$
>  <compound>
COc1cc(C(=O)NC2CCOC2)ccc1Nc1nccc(-c2cnc3c(c2)C(C)(CO)CN3)n1 (stereo not shown)

>  <pIC50>
8.30

$$$$
>  <compound>
COc1cc(N2CC(OC)C2)c(Cl)cc1Nc1nccc(-c2cnc3c(c2)C(C)(CO)CN3)n1 (stereo not shown) [Compound 287]

>  <pIC50>
8.89

$$$$

a = COc1cc(N2CC3(CCOC3)C2)c(Cl)cc1Nc1nccc(-c2cnc3c(c2)C(C)(CO)CN3)n1 (stereo not shown)
b = Cc1cc(C(=O)NC2CCOCC2)ccc1Nc1nccc(-c2cnc3c(c2)C(C)(CO)CN3)n1 (stereo not shown)
Query block: // which entry has the larger pIC50 value, a or b ? Give the label under which the chosen entry appears.
Result block: a
(a: 8.96, b: 7.87)
